- measurement_protocol: in vivo
- reported_conditions: PXB (human liver-chimeric), mouse, po, 10 mg/kg
test_readout: half-life (h)
Give just the number in h; leave the unit off.

compound="CC(C)(C)[C@H](NC(=O)C(F)(F)F)C(=O)N1C[C@H]2[C@@H]([C@H]1C(=O)N[C@@H](C[C@@H]1CCNC1=O)C(=O)c1nc3cc(F)ccc3s1)C2(C)C [TKB272]" test_result=3.12

Query: What half-life value was documented for this compound, CC(C)(C)[C@H](NC(=O)C(F)(F)F)C(=O)N1C[C@H]2[C@@H]([C@H]1C(=O)N[C@H](C#N)C[C@@H]1CCNC1=O)C2(C)C [Nirmatrelvir, reference compound] ?
Reply: 1.43

====

- measurement_protocol: in vivo
- reported_conditions: ICR, mouse, po, 10 mg/kg
test_readout: half-life (h)
Return type: number; implicit unit h.

Query: Report half-life for CC(C)(C)[C@H](NC(=O)C(F)(F)F)C(=O)N1C[C@H]2[C@@H]([C@H]1C(=O)N[C@@H](C[C@@H]1CCNC1=O)C(=O)c1nc3cc(F)ccc3s1)C2(C)C please.
Reply: 3.37

====

- Test system: SARS-CoV-2^BQ.1.1
- measurement_protocol: microbe, parasite or virus in culture
- Type: cell-based
- reported_conditions: Severe acute respiratory syndrome coronavirus 2, read-out: SARS-CoV-2^BQ.1.1 in HeLa^hACE2-TMPRSS2 cells EC50
Below, each entry is listed with its recorded EC50.
Write the number in nM without appending the unit.

Below, 3 compounds whose answers are already recorded.
compound="CC(C)(C)[C@H](NC(=O)C(F)(F)F)C(=O)N1C[C@H]2[C@@H]([C@H]1C(=O)N[C@@H](C[C@@H]1CCNC1=O)C(=O)c1nc3cccc(F)c3s1)C2(C)C [TKB252]" test_result=57
compound="CC(C)(C)[C@H](NC(=O)C(F)(F)F)C(=O)N1C[C@H]2[C@@H]([C@H]1C(=O)N[C@@H](C[C@@H]1CCNC1=O)C(=O)c1nc3cc(F)ccc3s1)C2(C)C [TKB272]" test_result=2.6
compound="CC(C)(C)[C@H](NC(=O)C(F)(F)F)C(=O)N1C[C@H]2[C@@H]([C@H]1C(=O)N[C@H](C#N)C[C@@H]1CCNC1=O)C2(C)C [Nirmatrelvir, reference compound]" test_result=51

// switching to the query compound
Query: Query (compound): CC(C)(C)[C@H](NC(=O)C(F)(F)F)C(=O)N1C[C@H]2[C@@H]([C@H]1C(=O)N[C@@H](C[C@@H]1CCNC1=O)C(=O)c1nc3ccc(F)cc3s1)C2(C)C [TKB273] ; field requested: EC50
Reply: 114

====

- system_under_test: human cathepsin L (Homo sapiens)
- Sequence (P07711 114-333): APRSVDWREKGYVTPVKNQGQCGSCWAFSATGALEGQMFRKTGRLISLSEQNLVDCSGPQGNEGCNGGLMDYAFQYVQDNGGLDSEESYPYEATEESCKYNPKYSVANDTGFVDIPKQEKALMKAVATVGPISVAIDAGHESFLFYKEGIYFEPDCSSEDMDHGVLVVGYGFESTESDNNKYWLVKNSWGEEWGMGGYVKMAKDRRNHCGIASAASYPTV
pIC50: −log10 of the molar value.
test_readout: pIC50

Query: Tell me reported pIC50 for CC(C)(C)[C@H](NC(=O)C(F)(F)F)C(=O)N1C[C@H]2[C@@H]([C@H]1C(=O)N[C@@H](C[C@@H]1CCNC1=O)C(=O)c1nc3cc(F)ccc3s1)C2(C)C , tested with human cathepsin L (Homo sapiens).
Reply: < 4.80

====

Below, each of the compounds is paired with its reported CC50 value.
- measurement_protocol: in vitro
- reported_conditions: African green monkey

Past entries and their recorded results:
compound="Cn1cnc(Cn2c(=O)[nH]/c(=N\\c3cc4cn(C)nc4cc3Cl)n(Cc3cc(F)c(F)cc3F)c2=O)n1 [Ensitrelvir, reference compound]" test_readout=CC50 test_result="> 100 µM"
compound="CC(C)(C)[C@H](NC(=O)C(F)(F)F)C(=O)N1C[C@H]2[C@@H]([C@H]1C(=O)N[C@H](C#N)C[C@@H]1CCNC1=O)C2(C)C [Nirmatrelvir, reference compound]" test_readout=CC50 test_result="> 100 µM"
compound="CC(C)(C)[C@H](NC(=O)C(F)(F)F)C(=O)N1C[C@H]2[C@@H]([C@H]1C(=O)N[C@@H](C[C@@H]1CCNC1=O)C(=O)c1nc3cc(F)ccc3s1)C2(C)C [TKB272]" test_readout=CC50 test_result="98 µM"

Query: Quick one: CC50 of CC(C)(C)[C@H](NC(=O)C(F)(F)F)C(=O)N1C[C@H]2[C@@H]([C@H]1C(=O)N[C@@H](C[C@@H]1CCNC1=O)C(=O)c1nc3c(F)cccc3s1)C2(C)C [TKB245] ?
Reply: > 100 µM

====

What follows is a record of IC50 for SARS-CoV-2 M^pro (Severe acute respiratory syndrome coronavirus 2, UniProt P0DTD1).
Your answer should be a plain number; it is taken to be in nM.

molecule="CC(C)(C)[C@H](NC(=O)C(F)(F)F)C(=O)N1C[C@H]2[C@@H]([C@H]1C(=O)N[C@@H](C[C@@H]1CCNC1=O)C(=O)c1nc3ccc(F)cc3s1)C2(C)C [TKB273]" test_readout=IC50 test_result=8.9

Query: Query IC50 on SARS-CoV-2 M^pro (Severe acute respiratory syndrome coronavirus 2, UniProt P0DTD1) for CC(C)(C)[C@H](NC(=O)C(F)(F)F)C(=O)N1C[C@H]2[C@@H]([C@H]1C(=O)N[C@@H](C[C@@H]1CCNC1=O)C(=O)c1nc3cccc(F)c3s1)C2(C)C [TKB252]
Reply: 200
